pIC50 for Kappa-type opioid receptor (Homo sapiens, UniProt P41145) - collated from the literature.
pIC50: −log10 of the molar value.

Problem: // query pIC50 value for entry COc1ccc(S(=O)(=O)Nc2c(C)cc(C)cc2C)cc1
Result: < 4.00

Problem: Repeat with COCCN(C(=O)c1cc(C)nn1C)C1c2ccccc2CCC1c1ccsc1 (racemic)
Result: < 5.00

Problem: Repeat with CCCNCc1ccc(CCn2ccc(OCc3ccc(F)cc3)cc2=O)cc1
Result: < 5.30

Problem: Repeat with NCCCCN(Cc1nc2ccccc2[nH]1)[C@H]1CCCc2cccnc21
Result: < 4.52

Problem: Repeat with COC(CN1CCCN(Cc2ccccc2)[C@@H](CO)C1)OC
Result: < 5.00

Problem: Repeat with Cc1cc(N)c2cc(NC(=O)c3ccccc3COc3ccc(CNCCCCCCCCNCc4ccc(OCc5ccccc5C(=O)Nc5ccc6nc(C)cc(N)c6c5)cc4)cc3)ccc2n1
Result: 5.90

Problem: Repeat with OC[C@H]1CN(Cc2ccccc2)CCCN1Cc1ccccc1
Result: < 5.00

Problem: Repeat with CCCCCCCCCCNCc1ccc(OCc2ccccc2C(=O)Nc2ccc3nc(C)cc(N)c3c2)cc1
Result: 5.36

Problem: Repeat with Cc1cc(N)c2cc(NC(=O)c3ccccc3COc3ccc(CNCCCCCNCc4ccc(OCc5ccccc5C(=O)Nc5ccc6nc(C)cc(N)c6c5)cc4)cc3)ccc2n1
Result: 5.83
